Test protocol: Toxicity liver stage against HepG2, at 10uM
Format: cell-based
Set-up: test concentration 10 uM, cell line HepG2-A16-CD81EGFP
Condition description: human, HepG2-A16-CD81EGFP cells; read-out: INHIBITION
Reported cytotoxicity at 10 µM values for a set of compounds
Just the number in %, nothing appended.

Some solved cases for reference:
Sure, the documented cytotoxicity at 10 µM for `Cc1cc(C)c2c(N3CCC(O)(Cn4ccnc4)CC3)ncnc2n1` is -3.28

Sure, the documented cytotoxicity at 10 µM for CN(C)C(C(=O)N1CCCN(C(=O)C2CCC2)CC1)c1ccccc1F (stereo unspecified) is -2.11

Sure, the documented cytotoxicity at 10 µM for COCC(C)NC(=O)NCCc1cccc(OC)c1O (stereo unspecified) is 7.87

Sure, the documented cytotoxicity at 10 µM for `Cc1cncc(Oc2ccc(CN)cc2)n1` is 9.81

Sure, the documented cytotoxicity at 10 µM for CC(C1CC1)N(C)C(=O)c1cnc(-c2ccc3c(c2)OCO3)s1 (stereo unspecified) is -7.06

Sure, the documented cytotoxicity at 10 µM for `Cc1noc(C2CCN(Cn3cc(Br)cn3)CC2)n1` is 0.277

Sure, the documented cytotoxicity at 10 µM for `O=C(NCCNc1cnccn1)N1CCCC1` is 3.92

Sure, the documented cytotoxicity at 10 µM for CCCC1COCCN1Cc1ccc(S(=O)(=O)NC)cc1 (stereo unspecified) is -142

Sure, the documented cytotoxicity at 10 µM for CC(C)Nc1nc(O)cc(C2CC(=O)N(Cc3ccccn3)C2)n1 (stereo unspecified) is -16.9

Sure, the documented cytotoxicity at 10 µM for `Cc1cc(C(=O)N2CC[C@@]3(O)CCN(S(C)(=O)=O)C[C@H]3C2)c(C)n1C` is -8

---
Sure, the documented cytotoxicity at 10 µM for COc1c(C2CCCN2C(=O)c2ccc(C#N)cc2)c(C)nn1C (stereo unspecified) is -1.72

Sure, the documented cytotoxicity at 10 µM for `Cn1ncc2c(NCCOc3ccc(F)cc3)nc(C3CCCC3)nc21` is 6.1

Sure, the documented cytotoxicity at 10 µM for CC(C)CN(CC(O)c1ccc(F)cc1)C(=O)c1cnsn1 (stereo unspecified) is -6.87
